System: HCT-116
Experiment: NCI tumour cell line growth inhibition, 48 h
The source made the active and inactive calls. No stated cut-off is given here; in the data, active = GI50 up to about 1.1 µM and inactive = higher.
In this section we review reported GI50 values for a set of compounds.

| compound | GI50 |
| --- | --- |
| CCCCCCCCCCCCCCC(C)CCC(=O)O (configuration not stated) | 36.8 µM (inactive) |
| COC(=O)C1=CC[C@@H]2C(C(=O)O)=CO[C@@H](OC3OC(CO)C(O)C(O)C3O)[C@H]12 (some centres not stated) | > 300 µM (inactive) |
| C=CC(OCC)(OCC)OCC | 20.6 µM (inactive) |

Task: Supply GI50 value. Item: `CC1=CC(=O)/C(=C/NC(=O)NN)C(=O)O1`
Output: > 100 µM (inactive)

Task: Supply GI50 value. Item: `CC(C)(C)/N=C\N1CCC(C(c2ccccc2)c2ccccc2)CC1`
Output: 50 µM (inactive)

Task: Supply GI50 value. Item: `CC(C)(C)OC(=O)NCC(c1c[nH]c2ccccc12)c1c[nH]c2ccccc12`
Output: 16 µM (inactive)

Task: Supply GI50 value. Item: `Cc1csc2c1-n1cccc1C2=O`
Output: > 100 µM (inactive)

Task: Supply GI50 value. Item: CC(=O)C(CN(C)Cc1ccccc1)C(c1ccccc1)c1c(O)c2ccccc2oc1=O (configuration not stated)
Output: > 100 µM (inactive)

Task: Supply GI50 value. Item: `O=S(O)CCCCCSSc1ccc(Cl)cc1`
Output: 25.2 µM (inactive)

Task: Supply GI50 value. Item: O=c1ncccn1C1OC(CO)C(O)C1O (configuration not stated)
Output: > 100 µM (inactive)

Task: Supply GI50 value. Item: `CSc1sc(=S)sc1SC`
Output: > 100 µM (inactive)

* * *

Test system: ACHN
Experiment: NCI tumour cell line growth inhibition, 48 h
Activity calls are given as the source filed them. Cut-off read from the data, not from the text of the source: active = GI50 up to about 1.1 µM and inactive = higher.
Your response should consist of one outcome taken from y (active), n (inactive)

Below are worked cases with known answers.
| compound | tested-on | cat |
| --- | --- | --- |
| N#CCc1nc2cc(C(F)(F)F)ccc2s1 | ACHN | n |
| CC#CCOC(=O)c1ccccc1OC(C)=O | ACHN | n |
| O=c1[nH]c2nc3ccccc3c(=O)n2/c1=C/c1ccc(O)cc1 | ACHN | n |
| CCOC(=O)C(C)c1nc2cc(N3CCN(C)CC3)c(F)cc2[nH]c1=O (configuration not stated) | ACHN | n |

Task: I would be grateful if you could indicate the recorded call for `CCOC(=O)c1nc2ccc(C(F)(F)F)cc2nc1Oc1ccc(C#N)cc1` .
Output: n

Task: I would be grateful if you could indicate the recorded call for `CC1=CC(=O)/C(=C/NC(=O)NN)C(=O)O1` .
Output: n

Task: I would be grateful if you could indicate the recorded call for `Oc1c(Cl)c(Cl)c(O)c(-c2cnc(-c3ncc(-c4c(O)c(Cl)c(Cl)c(O)c4Cl)s3)s2)c1Cl` .
Output: n

* * *

System: SNB-19
Experiment: NCI tumour cell line growth inhibition, 48 h
The source made the active and inactive calls. No stated cut-off is given here; in the data, active = GI50 up to about 1.1 µM and inactive = higher.
readout-name: GI50

| compound | GI50 |
| --- | --- |
| CN1C(=O)C23CCCC2CC1(c1ccccc1)S3 (stereo not drawn) | > 100 µM (inactive) |
| COc1ccc(C2c3c[nH]nc3CC3CCCCC32)cc1 (stereo not drawn) | 18.2 µM (inactive) |
| CSC(=S)N/N=C/c1ccccc1 | 53.7 µM (inactive) |
| CCOC(=O)C1=CCOc2cc(N(C)C)ccc21 | > 100 µM (inactive) |
| NC(=O)C(c1ccccc1)N1OC2C(=O)N(c3ccccc3)C(=O)C2C1c1c2ccccc2c(Cl)c2ccccc12 (stereo not drawn) | > 100 µM (inactive) |

// switching to the query compound
Task: Supply GI50 value. Item: `C(/C=N/N=C1NCCCN1)=N\N=C1NCCCN1`
Output: > 100 µM (inactive)
